Reported IC50 against SYK kinase (Homo sapiens, UniProt P43405), gathered from multiple publications, appears below.

CC(C)(C(N)=O)c1ccc(-c2cc3nccnc3c(OC[C@@H]3CN(S(C)(=O)=O)CCO3)n2)cc1    42 nM
CC(=O)N(C)C1CCN(c2nccn3nc(Nc4ccc5c(c4)NC(=O)C5(C)C)nc23)C1 (centres unmarked)    300 to 3000 nM
CC1(C)C(=O)Nc2cc(Nc3nc4c(N5CC6C(=O)NC(=O)C6C5)nccn4n3)ccc21 (centres unmarked)    100 to 300 nM
Fc1cccc(F)c1COc1cccc(Nc2nccc(-c3nccs3)n2)c1    < 500 nM
COc1cc(-c2cc3nccc(-c4ccc5cc[nH]c5c4)c3o2)cc(OC)c1OC    < 300 nM

The observed IC50 for `C#Cc1cc(Nc2cc(Oc3ccc(NC(=O)Nc4cc(C(C)(C)C)cc(NS(C)(=O)=O)c4OC)c4ccccc34)ccn2)cc(C(=O)N[C@H](C)COCCOCCOC)c1` when tested with SYK kinase (Homo sapiens, UniProt P43405) stands at 1170 nM

GET /values?item= `CS(=O)(=O)N1CCN(c2ccc(-c3cc4nccnc4c(O[C@@H]4CCOC4)n3)cc2)CC1` &system= SYK kinase (Homo sapiens, UniProt P43405) returns IC50: 33 nM

Param item: `COc1ccc([C@@H](C)N)cc1-c1ccnc2cc(-c3cc(OC)c(OC)c(OC)c3)oc12` ; param system: SYK kinase (Homo sapiens, UniProt P43405); output IC50: 300 to 3000 nM

* * *

Let's look at some pIC50 data for SYK kinase (Homo sapiens, UniProt P43405) that I collected from the literature.
pIC50: −log10 of the molar value.

Example entries begin here.
N#CC1(c2ccc(-c3cc4nccnc4c(OC[C@@H]4CN(C(N)=O)CCO4)n3)cc2)CC1    7.12
CC(C)(C#N)n1cc(Nc2nc(-c3ccco3)nc3cn[nH]c23)cn1    6.00 to 7.00
COc1cc(-c2cc3nccc(-c4cnn(C)c4)c3o2)ccc1OCCNC(=O)OC(C)(C)C    5.52 to 6.52

Lab book: pIC50 of `Clc1ccnc(Nc2cccc(-c3cnc(-c4ccsc4)o3)n2)c1` noted as 5.00 to 6.00

Consider `CCO[C@H]1CNc2cc(Nc3ncc(C(N)=O)c(NC4CC4)n3)ccc2OC1` . Its measured pIC50 is 7.00 to 8.00

Short answer for `COc1ccc(-c2cc3nccc(Nc4ccc5[nH]ccc5c4C)c3o2)c(OC)c1OC` : pIC50 was 5.52 to 6.52

// sample `Cc1cc(-c2nc(N[C@@H]3CCOC[C@@H]3N)c(F)c3c2C(=O)N[C@@H]3C)sn1` , its pIC50 was 7.80

Data point: `CN1CCC(n2cc(Nc3nc(-c4ccc5cn[nH]c5c4)nc4cn[nH]c34)cn2)CC1` ; pIC50 = 7.00 to 8.00

* * *

Let's look at some IC50 data for SYK kinase (Homo sapiens) that I collected from the literature.
Property Measured: IC50 (nM)

COCCOCCOCCOc1cc(Nc2nccc(Oc3ccc(NC(=O)Nc4cc(C(C)(C)C)cc(CC(N)=O)c4OC)c4ccccc34)n2)cc(OC)c1    103
COCCOCCOCCOc1cc(Nc2cc(Oc3ccc(NC(=O)Nc4cc(C(C)(C)C)cc(NS(C)(=O)=O)c4OC)c4ccccc34)ccn2)cc(OC)c1    193

1 = CS(=O)(=O)N1CCO[C@H](COc2nc(-c3cnn(C4CCOCC4)c3)cc3nccnc23)C1
2 = COc1cc(Nc2cc(Oc3ccc(NC(=O)Nc4cc(C(C)(C)C)cc(NS(C)(=O)=O)c4OC)c4ccccc34)ccn2)ccc1C(=O)NCCN1CCSCC1
Lookup: Problem: Given the entries 1 and 2 , determine which has the lower reported IC50. Which one? Tell me its label.
Found: 1
(1: 139 nM, 2: 389 nM)
